Experiment: Drug concentration in […] mouse cerebrospinal fluid at 50 mg/kg,po and measured upto 480 mins by LC-MS/MS analysis
Type: ADME, organism-based
Conditions: read-out: Ct
recorded.endpoint: concentration at 8 h

C=CC(C)(C)C(OC(=O)c1ccco1)c1cc(OC)c2c(c1OC)/C(=N/O)C=C/C2=N\O (stereo unspecified) has a reported concentration at 8 h of < 0.05 ng/mL

----------
Target: Bombesin receptor subtype-3 (Mus musculus, UniProt O54798)
Sequence (O54798 whole entry): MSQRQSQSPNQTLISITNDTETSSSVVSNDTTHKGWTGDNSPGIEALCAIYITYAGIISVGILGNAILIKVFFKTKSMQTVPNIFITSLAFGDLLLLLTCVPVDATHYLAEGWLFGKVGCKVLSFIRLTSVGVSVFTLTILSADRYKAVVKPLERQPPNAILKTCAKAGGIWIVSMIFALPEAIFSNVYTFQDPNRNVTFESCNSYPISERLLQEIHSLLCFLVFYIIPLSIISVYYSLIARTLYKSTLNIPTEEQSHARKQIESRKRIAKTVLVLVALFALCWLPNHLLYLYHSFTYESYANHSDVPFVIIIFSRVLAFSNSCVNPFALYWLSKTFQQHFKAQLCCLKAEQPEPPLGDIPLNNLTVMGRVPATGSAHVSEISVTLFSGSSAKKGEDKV
Experiment: Agonist activity at endogenous mouse BB3 in mouse B16 cells assessed as increase in IP-1 accumulation incubated for 60 mins by HTRF assay
Format: functional, cell-based
recorded.endpoint: EC50 (nM)
Write the answer as a number in nM, unit excluded.

Value of EC50 reported for the molecule O[C@@](Cc1nc(CC2(C(F)(F)F)CC2)c[nH]1)(c1ccc(-n2cccn2)cc1)C(F)(F)F is 13.5

For this molecule ( C=CC(C)(C)C(OC(=O)c1ccco1)c1cc(OC)c2c(c1OC)/C(=N/O)C=C/C2=N\O (configuration not stated) ), measured EC50 is 0.44
